// reported activity at 10 µM per item
# Test system: UACC-257
# assayOverview: NCI-60 anticancer screen (SRB; single dose and five doses)
# particulars: Homo sapiens, UACC-257, 48 h, read-out: Growth Percentage
Quick note: give the figure in %, leave out the unit.

In [3]: df
Out[3]:
                                        mol  reportedmeasurement
0     Cc1[nH]c(=S)sc1C(=O)/C=C/c1cccc(Cl)c1                 52.7
1      Cc1[nH]c(=S)sc1C(=O)/C=C/c1ccc(F)cc1                 64.1
2     COc1ccc(/C=C/C(=O)c2sc(=S)[nH]c2C)cc1                   68
3   COc1cccc(/C=C/C(=O)c2sc(=S)[nH]c2C)c1OC                 35.4
4  COc1cc(/C=C/C(=O)c2sc(=S)[nH]c2C)cc(OC)c1OC                 42.1
5     Cc1[nH]c(=S)sc1C(=O)/C=C/c1ccc(Cl)cc1                 66.8
6      Cc1[nH]c(=S)sc1C(=O)/C=C/c1cccc(F)c1                 83.7
7      Cc1ccc(/C=C/C(=O)c2sc(=S)[nH]c2C)cc1                 80.1
8  COc1ccc(/C=C/C(=O)c2sc(=S)[nH]c2C)c(OC)c1                 84.4
9         Cc1[nH]c(=S)sc1C(=O)/C=C/c1ccccc1                 76.2

*Q* Reported activity at 10 µM for UACC-257, given `Cc1[nH]c(=S)sc1C(=O)/C=C/c1ccccc1Cl` ?
*A* 87.2

*Q* Reported activity at 10 µM for UACC-257, given `Cc1[nH]c(=S)sc1C(=O)/C=C/c1cccc([N+](=O)[O-])c1` ?
*A* 9.4

*Q* Reported activity at 10 µM for UACC-257, given `Cc1[nH]c(=S)sc1C(=O)/C=C/c1ccc(N(C)C)cc1` ?
*A* 64.1

*Q* Reported activity at 10 µM for UACC-257, given `Cc1[nH]c(=S)sc1C(=O)/C=C/c1ccc(Br)cc1` ?
*A* 69.1

*Q* Reported activity at 10 µM for UACC-257, given `COc1ccc(/C=C/C(=O)c2sc(=S)[nH]c2C)cc1OC` ?
*A* 71.4

*Q* Reported activity at 10 µM for UACC-257, given `Cc1[nH]c(=S)sc1C(=O)/C=C/c1ccc([N+](=O)[O-])cc1` ?
*A* 63.3

====

# Tested on: ACHN
# assayOverview: NCI-60 anticancer screen (SRB; single dose and five doses)
# particulars: Homo sapiens, 48 h, read-out: Growth Percentage
measurementLabel: activity at 10 µM (%)
Quick note: give the figure in %, leave out the unit.

>>> print(df.to_string())
                                       mol  studysystem  u  reportedmeasurement
0  COc1ccc(/C=C/C(=O)c2sc(=S)[nH]c2C)cc1OC         ACHN  %                 64.9
1    COc1ccc(/C=C/C(=O)c2sc(=S)[nH]c2C)cc1         ACHN  %                 85.6
2    Cc1[nH]c(=S)sc1C(=O)/C=C/c1cccc(Cl)c1         ACHN  %                 22.9
3     Cc1ccc(/C=C/C(=O)c2sc(=S)[nH]c2C)cc1         ACHN  %                 71.2
4     Cc1[nH]c(=S)sc1C(=O)/C=C/c1ccc(F)cc1         ACHN  %                 47.2

API: the following record is the query input.
*Q* Record request: activity at 10 µM value, item `COc1cccc(/C=C/C(=O)c2sc(=S)[nH]c2C)c1OC`
*A* 52.5

Data provenance: paper PMC11435058
